EXPERIMENTAL_TARGET: UniProtKB Q72874
pIC50: −log10 of the molar value.

>  <SMILES_RECORD>
CC(C)(C)NC(=O)[C@@H]1C[C@@H]2CCCC[C@@H]2CN1C[C@@H](O)[C@H](Cc1ccccc1)NC(=O)[C@@H](NC(=O)c1ccc2ccccc2n1)[C@H]1CCOC1

>  <EXPERIMENTAL_TARGET>
UniProtKB Q72874

>  <pIC50>
10.30

$$$$
